- Test system: GABAA receptors
- Assay details: Electrophysiology assay (two-electrode voltage clamp, Xenopus oocytes expressing GABAA receptors)
- Assay type: cell-based
- Measurement setup: positive (Pos) or negative (Neg) modulation of current at GABA EC20, screening concentration of 10 μM
Attribute measured: EP Result

See these solved cases before continuing.
{"Compound": "O=c1c2c[nH]c3cc(Cl)c(N4CCNCC4)cc3c-2nn1-c1ccccc1 [19j]", "EP Result": "Neg"}
{"Compound": "COc1ccc(-n2nc3c4cc(N5CCN(C(C)C)CC5)ccc4[nH]cc-3c2=O)cc1 [19i]", "EP Result": "Pos"}
{"Compound": "COc1ccc(-n2nc3c4ccc(N5CCN(C)CC5)cc4[nH]cc-3c2=O)cc1 [14f]", "EP Result": "Neg"}
{"Compound": "O=c1c2c[nH]c3ccc(N4CCOCC4)cc3c-2nn1-c1ccccn1 [19c]", "EP Result": "Neg"}
{"Compound": "CN1CCN(c2ccc3c4nn(-c5ccc(Cl)cc5)c(=O)c-4c[nH]c3c2)CC1 [14d]", "EP Result": "Neg"}

Q: Check the records and state EP Result for O=c1c2c[nH]c3cc(N4CCNCC4)ccc3c-2nn1-c1ccccc1 [14a]
A: Neg
